# Test system: SK-MEL-5 melanoma
# measurementDescription: NCI tumour cell line growth inhibition, 48 h
Answer each item with its documented TGI.

Fill blank: measured TGI of the compound Cc1cc(Nc2nc(N[C@@H](C)c3ncc(F)cn3)ncc2Cl)n[nH]1 is ____.
> 100 µM

// repeat for Cc1cc(-c2cc(O)ccc2Cl)cc2nnc(Nc3ccc(OCCN4CCCC4)cc3)nc12 and report
3.37 µM

Same read-out for O=C1O[C@H]2[C@H](OC(=O)c3cc(O)c(O)c(O)c3)[C@@H](OC(=O)c3cc(O)c(O)c4c3[C@@H]3C1=CC(=O)C(O)(O)C3(O)O4)[C@H](OC(=O)c1cc(O)c(O)c(O)c1)O[C@@H]2COC(=O)c1cc(O)c(O)c(O)c1 (stereo partly drawn) ?
> 100 µM

Try this compound too: COC(=O)c1oc2c(C(=O)/C=C/c3ccc(OC)cc3)c(OCCN(C)C)ccc2c1C
22.4 µM

Would you mind doing Oc1c(Cl)cc(Cl)c2ccc(Cn3cc(-c4ccc(C(F)(F)F)cc4)nn3)nc12 as well?
11.4 µM

Queued: COC(=O)[C@@]12CC(C(C)C)[C@H]3CC(C(=O)C=C1OC)[C@H]32 (stereo partly drawn)
> 100 µM

Entry to check: Cc1cc(Nc2cc(N3CCN(C)CC3)nc(/C=C/c3ccccc3)n2)n[nH]1
> 4.15 µM

Consider next the compound COC(=O)C1=CC2C=CC(C1C(=O)OC)C1C(C(=O)OC)=C(C(=O)OC)C(C(=O)OC)=C(C(=O)OC)C21OC (stereo not drawn) in the same way.
> 100 µM

====

# System: K-562 leukemia
# measurementDescription: NCI tumour cell line growth inhibition, 48 h
measurementLabel: TGI

// returns reported TGI for input COC(=O)C1C(=O)O[C@@H](c2cc(OC)c(OC)cc2OC)C1C(=O)OC (mixture of isomers)
> 100 µM

Input CCCCc1ccc(Nc2nc(OC)c3ncn(C4CC(O)C(CO)O4)c3n2)cc1 (stereo not drawn)
> 100 µM

Proceed to C=CCC(N[C@@H](CO)c1ccccc1)c1cn(C(=O)OCC)c2ccccc12 (stereo partly drawn)
> 100 µM

Moving on to the next compound: O=C(Nc1ccc(Cl)c(Cl)c1)C(=O)C(C(=O)c1ccccc1-c1ccccc1)C1OC(=O)c2ccccc21 (stereo not drawn)
> 100 µM

// repeat for COc1ccc([C@@]23Oc4cc(OC)cc(OC)c4[C@]2(O)[C@H](O)[C@H](C(N)=O)[C@H]3c2ccccc2)cc1 and report
> 100 µM

// repeat for COC1CC(OC2C(C)OC(OC3C(C)OC(OC4C(C)OC(O[C@H]5CC[C@@]6(C)C(=CC[C@]7(O)[C@@H]6C[C@@H](OC(C)=O)[C@@]6(C)[C@]7(O)CC[C@@]6(O)C(C)=O)C5)CC4OC)CC3OC)CC2OC)OC(C)C1O (stereo partly drawn) and report
> 25 µM

Then Nc1c(Cl)ncnc1NCCCCCCCCCCCCNc1ncnc(Cl)c1N ?
> 100 µM

// repeat for COC(=O)[C@@]12CC(C(C)C)[C@H]3CC(C(=O)C=C1OC)[C@H]32 (stereo partly drawn) and report
> 100 µM

And what about the compound Cc1c(CCCl)c(N=P(c2ccccc2)(c2ccccc2)c2ccccc2)n2c(nc3ccccc32)c1C#N ?
> 10 µM

Repeat for the following compound: COc1cc(C(=O)c2cnc(-c3cccc4[nH]ccc34)[nH]2)cc(OC)c1OC
42.3 µM

Can you handle COc1cc(/C=N/N=C(\N)NO)c(Cl)cc1O next?
> 100 µM

Here is the next compound: Cn1c2c(c3ccccc31)CCN1C(=O)CCC21 (stereo not drawn)
> 10 µM

Continue with CC(Nc1ccc(Cl)c(Cl)c1)c1ccncc1 (stereo not drawn)
> 100 µM
